- assayOverview: dye-only thermal melt shift artefacts – biochemical, thermal shift counterscreen, cherry-pick, artefact control for Keap1-Nrf2 interaction inhibitor project, dose response (AID 651858)
- reportedConditions: Sypro Orange dye-only thermal melt, no protein, top dose 50 µM, stronger effect = higher value
This is one part of the list. Calls of active or inactive are those of the source.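 The calls were made as follows: active = at highest dose tested, delta Tm positive; inactive = the rest.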
quantity: delta Tm

>>> valuemeasured("CCCC1OC23CCCCC2C(C#N)(C#N)C1(C#N)C(=N)O3 (centres undefined)")
"-28.4 °C (inactive)"

Inquiry: Give the value of delta Tm reported for the following: O=C(Nc1ccccn1)C1CCN(S(=O)(=O)c2ccc3c(c2)OCCO3)CC1
Reply text: -21.3 °C (inactive)

Inquiry: Give delta Tm for CCCC(=O)Nc1ccc(C(=O)NCCCn2ccnc2)cc1
Reply text: -28 °C (inactive)

Inquiry: Answer with reported delta Tm of Nc1ccc2nc3c(=O)[nH]c(=S)[nH]c3nc2c1
Reply text: -27.3 °C (inactive)

Reference source for all entries: PubChem BioAssay AID651858
